The reported numbers originate from patent US20230050440A1.

# target under test: T1, monomeric human TIGIT (Sino Biological 10917-H08H) (human, UniProt Q495A1 22-138, biotinylated in the MSD-SET assay)
# T1 construct: Bought protein; also called Human TIGIT monomer; Human TIGIT-His; not shown: His tag
# T1 sequence: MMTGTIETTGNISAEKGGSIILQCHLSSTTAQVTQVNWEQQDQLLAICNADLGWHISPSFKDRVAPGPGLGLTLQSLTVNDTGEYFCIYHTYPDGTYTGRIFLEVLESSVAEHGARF
# procedure details: BLI (ForteBio), IgG on sensor, monovalent
For each entry below, report its pKd value.
Give bare numbers, as −log10 of the molar value.

Examples with their reported pKd follow.
binder | pKd
Clone 2C (antibody, V domains shown) VH: EVQLVESGGGLVQPGGSLRLSCAASGFTFTDYYMDWVRQAPGKGLEWVGRTRNKVNSYYTEYAASVKGRFTISRDDSKNSLYLQMNSLKTEDTAVYYCARGQYYYGSDRRGYYYMDVWGQGTTVTVSS VL: EIVLTQSPGTLSLSPGERATLSCRASQSVSSSYLAWYQQKPGQAPRLLIYGASSRATGIPDRFSGSGSGTDFTLTISRLEPEDFAVYYCQQAVPSPLTFGGGTKVEIK | 9.29
Clone 16D (antibody, V domains shown) VH: QVQLVQSGAEVKKPGSSVKVSCKASGGTFSDYPISWVRQAPGQGLEWMGGIIPIVGGANYAQKFQGRVTITADESTSTAYMELSSLRSEDTAVYYCTRQSTWHKLFGTDVWGQGTTVTVSS VL: DIQMTQSPSSVSASVGDRVTITCRASQGISSWLAWYQQKPGKAPKLLIYAASSLQSGVPSRFSGSGSGTDFTLTISSLQPEDFATYYCQQGDSLPPTFGGGTKVEIK | 9.22
Clone 16 (antibody, V domains shown, Fully human IgG produced in yeast) VH: QVQLVQSGAEVKKPGSSVKVSCKASGGTFSSYAISWVRQAPGQGLEWMGGIIPIFGTASYAQKFQGRVTITADESTSTAYMELSSLRSEDTAVYYCARQSTWHKLYGTDVWGQGTTVTVSS VL: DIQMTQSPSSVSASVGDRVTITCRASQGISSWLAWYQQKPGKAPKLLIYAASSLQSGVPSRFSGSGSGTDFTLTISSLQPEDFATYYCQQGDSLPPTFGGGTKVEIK | 8.60

Quick request: pKd for each listed item, please.
1. Clone 16E (antibody, V domains shown) VH: QVQLVQSGAEVKKPGSSVKVSCKASGGTFSDYPISWVRQAPGQGLEWMGGIIPIVGGANYAQKFQGRVTITADESTSTAYMELSSLRSEDTAVYYCARQSTWHKVYGTDVWGQGTTVTVSS VL: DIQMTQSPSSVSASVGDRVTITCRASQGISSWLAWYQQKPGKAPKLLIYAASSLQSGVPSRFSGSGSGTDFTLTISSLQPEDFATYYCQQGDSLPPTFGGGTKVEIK
2. Clone 2 (antibody, V domains shown, Fully human IgG produced in yeast; also called anti-TIGIT antibody clone 2) VH: EVQLVESGGGLVQPGGSLRLSCAASGFTFSDHYMDWVRQAPGKGLEWVGRTRNKANSYTTEYAASVKGRFTISRDDSKNSLYLQMNSLKTEDTAVYYCARGQYYYGSSSRGYYYMDVWGQGTTVTVSS VL: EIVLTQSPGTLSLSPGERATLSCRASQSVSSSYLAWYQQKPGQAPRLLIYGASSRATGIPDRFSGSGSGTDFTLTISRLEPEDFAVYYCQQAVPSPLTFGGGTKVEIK

Output:
1: 9.11; 2: 8.09
